Source listed as ChEMBL document CHEMBL3352529.

# Subject Of Test: Neuraminidase (Influenza A virus)
# Assay Method Text: Inhibition of Influenza A virus A/chicken/china/1220/2012(H5N1) Neuraminidase N1
Group membership follows IC50 per the scheme lo = under 20 nM, mid = from 20 nM up to 80 nM, hi = 80 nM and over

[
  {
    "Smiles Notation": "CCC(CC)O[C@@H]1C=C(C(=O)O)C[C@H](NCc2ccccc2F)[C@H]1NC(C)=O",
    "Label Value": "lo"
  },
  {
    "Smiles Notation": "CCC(CC)O[C@@H]1C=C(C(=O)O)C[C@H](NCc2ccc(-c3ccccc3)cc2-c2ccccc2)[C@H]1NC(C)=O",
    "Label Value": "mid"
  },
  {
    "Smiles Notation": "CCC(CC)O[C@@H]1C=C(C(=O)O)C[C@H](N(Cc2cccs2)C(=N)N)[C@H]1NC(C)=O",
    "Label Value": "hi"
  },
  {
    "Smiles Notation": "CCC(CC)O[C@@H]1C=C(C(=O)O)C[C@H](NC/C=C/c2ccccc2)[C@H]1NC(C)=O",
    "Label Value": "lo"
  },
  {
    "Smiles Notation": "CCC(CC)O[C@@H]1C=C(C(=O)O)C[C@H](NCc2ccccc2OC)[C@H]1NC(C)=O",
    "Label Value": "mid"
  },
  {
    "Smiles Notation": "CCC(CC)O[C@@H]1C=C(C(=O)O)C[C@H](NCc2ccccc2O)[C@H]1NC(C)=O",
    "Label Value": "mid"
  },
  {
    "Smiles Notation": "CCC(CC)O[C@@H]1C=C(C(=O)O)C[C@H](NCc2ccccc2Br)[C@H]1NC(C)=O",
    "Label Value": "lo"
  },
  {
    "Smiles Notation": "CCC(CC)O[C@@H]1C=C(C(=O)O)C[C@H](N(Cc2ccc(-c3ccccc3)cc2)C(=N)N)[C@H]1NC(C)=O",
    "Label Value": "hi"
  },
  {
    "Smiles Notation": "CCC(CC)CN[C@H]1CC(C(=O)O)=C[C@@H](OC(CC)CC)[C@@H]1NC(C)=O",
    "Label Value": "mid"
  },
  {
    "Smiles Notation": "CCC(CC)O[C@@H]1C=C(C(=O)O)C[C@H](NCc2ccc(-c3cccs3)cc2)[C@H]1NC(C)=O",
    "Label Value": "lo"
  },
  {
    "Smiles Notation": "CCCCN[C@H]1CC(C(=O)O)=C[C@@H](OC(CC)CC)[C@@H]1NC(C)=O",
    "Label Value": "lo"
  },
  {
    "Smiles Notation": "CCC(CC)O[C@@H]1C=C(C(=O)NO)C[C@H](N)[C@H]1NC(C)=O",
    "Label Value": "hi"
  },
  {
    "Smiles Notation": "CCC(CC)O[C@@H]1C=C(C(=O)O)C[C@H](NCc2ccc(-c3ccccc3)cc2Cl)[C@H]1NC(C)=O",
    "Label Value": "lo"
  },
  {
    "Smiles Notation": "CCCN(C(=N)N)[C@H]1CC(C(=O)O)=C[C@@H](OC(CC)CC)[C@@H]1NC(C)=O",
    "Label Value": "hi"
  },
  {
    "Smiles Notation": "CCC(CC)O[C@@H]1C=C(C(=O)O)C[C@H](N(CCCc2ccccc2)C(=N)N)[C@H]1NC(C)=O",
    "Label Value": "hi"
  },
  {
    "Smiles Notation": "CCC(CC)O[C@@H]1C=C(C(=O)O)C[C@H](NCc2cccs2)[C@H]1NC(C)=O",
    "Label Value": "lo"
  },
  {
    "Smiles Notation": "C=CCOc1ccccc1CN[C@H]1CC(C(=O)O)=C[C@@H](OC(CC)CC)[C@@H]1NC(C)=O",
    "Label Value": "hi"
  }
]
